- measured.on: T1, recombinant human KAAG1 (Kidney associated antigen 1) (human, UniProt Q9UBP8 1-84)
- T1 construct: also called KAAG1 protein
- T1 sequence: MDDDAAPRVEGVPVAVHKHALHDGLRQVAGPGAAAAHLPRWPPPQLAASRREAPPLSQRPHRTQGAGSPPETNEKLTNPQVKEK
- test.method.notes: SPR (BioRad ProteOn XPR36): antibody captured on an anti-human IgG Fc surface, KAAG1 injected as analyte, 1:1 Langmuir fit
result.type: pKd
Answers are plain numbers, as −log10 of the molar value.

Quick one: give me pKd for each item below, same order please.
1. humanized 3A4 antibody Lh2Hh1 (antibody, human IgG1, kappa, V domains shown, Human IgG1/kappa) VH: QVQLVQSGAEVKKPGASVKVSCKASGYTFTDDYMSWVRQAPGQGLEWMGDINPYNGDTNYNQKFKGRVTITADTSTSTAYMELSSLRSEDTAVYYCARDPGAMDYWGQGTLVTVSS VL: DVVMTQTPLSLPVTPGEPASISCRSSQSLLHSNGNTYLEWYLQKPGQSPKLLIYTVSNRFSGVPDRFSGSGSGTDFTLKISRVEAEDVGVYYCFQGSHVPLTFGQGTKLEIKR
2. humanized 3A4 antibody Lh1Hh4 (antibody, human IgG1, kappa, V domains shown, Human IgG1/kappa) VH: QIQLVQSGAEVKKPGASVKVSCKASGYTFTDDYMSWVKQAPGQGLEWIGDINPYNGDTNYNQKFKGKATLTVDKSTSTAYMELSSLRSEDTAVYYCARDPGAMDYWGQGTLVTVSS VL: DIVMTQTPLSLPVTPGEPASISCRSSQSLLHSNGNTYLEWYLQKPGQSPQLLIYTVSNRFSGVPDRFSGSGSGTDFTLKISRVEAEDVGVYYCFQGSHVPLTFGQGTKLEIKR
3. humanized 3A4 antibody Lh1Hh1 (antibody, human IgG1, kappa, V domains shown, Human IgG1/kappa; 100% humanized frameworks; also called H1 L1; H1L1) VH: QVQLVQSGAEVKKPGASVKVSCKASGYTFTDDYMSWVRQAPGQGLEWMGDINPYNGDTNYNQKFKGRVTITADTSTSTAYMELSSLRSEDTAVYYCARDPGAMDYWGQGTLVTVSS VL: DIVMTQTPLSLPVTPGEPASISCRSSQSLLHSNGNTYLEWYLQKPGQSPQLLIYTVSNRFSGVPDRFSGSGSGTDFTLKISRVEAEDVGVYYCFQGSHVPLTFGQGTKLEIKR
4. humanized 3A4 antibody Lh2Hh3 (antibody, human IgG1, kappa, V domains shown, Human IgG1/kappa) VH: QIQLVQSGAEVKKPGASVKVSCKASGYTFTDDYMSWVRQAPGQGLEWIGDINPYNGDTNYNQKFKGRATLTVDKSTSTAYMELSSLRSEDTAVYYCARDPGAMDYWGQGTLVTVSS VL: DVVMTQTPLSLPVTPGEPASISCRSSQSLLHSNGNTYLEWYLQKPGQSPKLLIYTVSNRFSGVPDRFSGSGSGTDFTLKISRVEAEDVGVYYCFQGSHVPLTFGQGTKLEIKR
5. chimeric 3A4 anti-KAAG1 antibody (mouse variable regions, human IgG1/kappa constant regions) (antibody, V domains shown, It is treated here as the same molecule; also called LcHc; murine 3A4 (LcHc)) VH: QIQLVQSGPEMVKPGASVKMSCKASGYTFTDDYMSWVKQSHGKSLEWIGDINPYNGDTNYNQKFKGKAILTVDKSSSTAYMQLNSLTSEDSAVYYCARDPGAMDYWGQGTSVTVSS VL: DVVMTQTPLSLAVSLGDQASISCRSSQSLLHSNGNTYLEWYLQKPGQSPKLLIHTVSNRFSGVPDRFSGSGSGTDFTLKISRVEAEDLGVYYCFQGSHVPLTFGAGTRLELKR

Completion:
[9.47, 9.83, 9.32, 9.64, 10.80]
